- Test System: HLA-B*07:02
- Test Method Notes: IEDB peptide-MHC binding, purified MHC/competitive/fluorescence; bounds were set here for any values at or beyond the usual limits of such assays
- Recorded Conditions: source organism: Sudan ebolavirus
Measurement Name: pIC50
Answers are plain numbers, as −log10 of the molar value.

{"Chain": "YTILNRKAI", "Measurement Name": "pIC50", "Value Observed": 4.70}

Attention now shifts to the item below.
Input line: Test system HLA-B*07:02; read-out pIC50; what value for GLMHNQNAL ?
Output line: 4.91

###

- Test System: HLA-A*23:01
- Test Method Notes: IEDB peptide-MHC binding, purified MHC/competitive/radioactivity; filed as Kd, often an IC50 or EC50 that approximates it; bounds were set here for any values at or beyond the usual limits of such assays
- Recorded Conditions: source organism: SARS coronavirus Tor2
pKd: −log10 of the molar value.
Measurement Name: pKd

{"Chain": "VFFGYFASHF", "Value Observed": 9.23}
{"Chain": "NYTQHTSSM", "Value Observed": "≤ 4.09"}
{"Chain": "FYGGWHNML", "Value Observed": 5.29}

State recorded pKd for all listed sequences.
1. LFVTIYSHL
2. SMMGFKMNY
3. TLDESFLGRY
4. FNATKFPSVY
5. NTNPIQLSSY
6. GSVGFNIDY
7. LTNSVIIMAY

Output line:
8.04
5.12
≤ 4.15
≤ 4.15
≤ 4.15
≤ 4.11
≤ 4.15

State recorded pKd for all listed sequences.
1. EIDETCEHEY
2. MADQAMTQMY
3. KFLTNKLLL

Output line:
["≤ 4.15", "≤ 4.15", 6.42]

###

- Test System: HLA-A*68:02
- Test Method Notes: IEDB peptide-MHC binding, purified MHC/competitive/fluorescence; filed as Kd, often an IC50 or EC50 that approximates it; bounds were set here for any values at or beyond the usual limits of such assays
- Recorded Conditions: source organism: Yersinia mollaretii ATCC 43969
pKd: −log10 of the molar value.
Measurement Name: pKd

Input line: Need pKd, item MMWIPGWFG
Output line: ≤ 4.70

###

- Test System: HLA-A*11:01
- Test Method Notes: IEDB peptide-MHC binding, purified MHC/competitive/radioactivity; filed as Kd, often an IC50 or EC50 that approximates it; bounds were set here for any values at or beyond the usual limits of such assays
- Recorded Conditions: source organism: Vaccinia virus WR
Measurement Name: Kd (µM)
Numbers only, in µM.

As a guide, the following entries are already answered.
{"Chain": "NFIPIIYSK", "Measurement Name": "Kd", "Units": "µM", "Value Observed": 0.212}
{"Chain": "GLFDFVNFVK", "Measurement Name": "Kd", "Units": "µM", "Value Observed": 0.000911}
{"Chain": "KIKLILANK", "Measurement Name": "Kd", "Units": "µM", "Value Observed": 0.146}
{"Chain": "VVMAYVGIK", "Measurement Name": "Kd", "Units": "µM", "Value Observed": 0.00124}

State recorded Kd for all listed sequences.
1. IMVASDVCKK
2. RIGTAATKR

Output line:
1. 0.0533
2. 2.42

Input line: Need Kd, item VFIHMVRCCK
Output line: 4.82

###

- Test System: HLA-A*03:01
- Test Method Notes: IEDB peptide-MHC binding, purified MHC/competitive/fluorescence; filed as Kd, often an IC50 or EC50 that approximates it; bounds were set here for any values at or beyond the usual limits of such assays
- Recorded Conditions: source organism: Yersinia pestis Antiqua
Measurement Name: pKd
One number for each entry, as −log10 of the molar value.

Input line: Need pKd, item ALTSAMLDR
Output line: 7.42
